- Tested on: pAKT in T47D (PI3Kα H1047R mutant) cells
- measurement-description: Inhibition of pAKT (alphaLISA Surefire Ultra AKT 1/2/3 pS473) in T47D cells
- Type: cell-based
- experimental-conditions: Homo sapiens; T47D (PI3Kα H1047R mutant) cells, 24 hr compound incubation, alphaLISA pS473; read-out: T47D (H1047R) pAKT 24 hr (IC50)
pIC50: −log10 of the molar value.
Each entry gets -1 if its pIC50 stays under 8, and 1 if its pIC50 is 8 or above.

**Query** // inclusive: pIC50 at least 8? input: Cc1cc([C@@H](C)Nc2ccc(Cl)nc2C(=O)O)c2nc(N3CCC4(CCO4)CC3)c(C#N)nc2c1
**Result** 1

**Query** // inclusive: pIC50 at least 8? input: Cc1cc([C@@H](C)Nc2ccc(Cl)nc2C(=O)O)c2nc(N3C[C@H]4C[C@@H]3CO4)c(C#N)nc2c1
**Result** 1

**Query** // inclusive: pIC50 at least 8? input: Cc1cc([C@@H](C)Nc2ccccc2C(=O)O)c2nc(N3CCC(F)(F)CC3)c(C)nc2c1
**Result** -1

**Query** // inclusive: pIC50 at least 8? input: Cc1cc([C@@H](C)Nc2ccc(Cl)nc2C(=O)O)c2nc(N3CC4(C3)CC(F)(F)C4)c(C#N)nc2c1
**Result** 1

**Query** // inclusive: pIC50 at least 8? input: Cc1cc([C@@H](C)Nc2ccc(Cl)nc2C(=O)O)c2nc(N3CCc4c(ccn(C)c4=O)C3)c(C#N)nc2c1
**Result** 1

**Query** // inclusive: pIC50 at least 8? input: Cc1cc([C@@H](C)Nc2cccnc2C(=O)O)c2nc(N3CCOCC3)c(C#N)nc2c1
**Result** -1

**Query** // inclusive: pIC50 at least 8? input: Cc1cc([C@@H](C)Nc2ccc(Cl)nc2C(=O)O)c2nc(N3CCO[C@@H](C(F)(F)F)C3)c(C#N)nc2c1 [Example 190B]
**Result** -1

**Query** // inclusive: pIC50 at least 8? input: Cc1cc([C@@H](C)Nc2ccc(Cl)nc2C(=O)O)c2nc(N3CC(C)(C)C3)c(C#N)nc2c1
**Result** 1

**Query** // inclusive: pIC50 at least 8? input: Cc1cc([C@@H](C)Nc2ccc(Cl)nc2C(=O)O)c2nc(N3Cc4ccc(F)cc4C3)c(C#N)nc2c1
**Result** 1

----------
- Tested on: pAKT in T47D (PI3Kα H1047R mutant) cells
- measurement-description: Inhibition of pAKT (alphaLISA Surefire Ultra AKT 1/2/3 pS473) in T47D cells
- Assay type: cell-based
- experimental-conditions: Homo sapiens; T47D (PI3Kα H1047R mutant) cells, 24 hr compound incubation, alphaLISA pS473; read-out: T47D (H1047R) pAKT 24 hr (IC50)
- Protocol: The ability of a compound of Formula (I) to inhibit the formation of pAKT was measured using alphaLISA Surefire Ultra AKT 1/2/3 (pS473) Assay Kit (#ALSU-PAKT-B50K) was obtained from Perkin Elmer (Waltham, MA). To prepare assay plates for pAKT alphaLISA assays, cells were trypsinized, resuspended in fresh media, and viable cells were counted utilizing trypan blue exclusion. Prior to seeding, cells were washed with PBS and resuspended in HBSS (Gibco, #14025092). […]
Answer each item with its documented IC50.

// compound Cc1cc([C@@H](C)Nc2ccc(Cl)nc2C(=O)O)c2nc(N3CC4C(C3)C4(F)F)c(C#N)nc2c1 (stereo partly drawn) , assay pAKT in T47D (PI3Kα H1047R mutant) cells, IC50 value: 0.5 nM

// compound COC1(C)CN(c2nc3c([C@@H](C)Nc4ccc(Cl)nc4C(=O)O)cc(C)cc3nc2C#N)C1 , assay pAKT in T47D (PI3Kα H1047R mutant) cells, IC50 value: 1.3 nM

// compound Cc1cc([C@@H](C)Nc2ccc(Cl)nc2C(=O)O)c2nc(N3CCC(n4cc(C)cn4)CC3)c(C#N)nc2c1 , assay pAKT in T47D (PI3Kα H1047R mutant) cells, IC50 value: 0.8 nM

----------
- Test system: pAKT in T47D (PI3Kα H1047R mutant) cells
- measurement-description: Inhibition of pAKT (alphaLISA Surefire Ultra AKT 1/2/3 pS473) in T47D cells
- Format: cell-based
- experimental-conditions: Homo sapiens; T47D (PI3Kα H1047R mutant) cells, 24 hr compound incubation, alphaLISA pS473; read-out: T47D (H1047R) pAKT 24 hr (IC50)
measured-attribute: IC50 (µM)
API: value field is a number in µM; no unit string.

Lab note: COC1(C)CN(c2nc3c([C@@H](C)Nc4ccccc4C(=O)O)cc(C)cc3nc2C#N)C1 gave IC50 of 0.0165

Lab note: C[C@@H](Nc1ccccc1C(=O)O)c1cc(F)cc2nc(C#N)c(N3CCC(F)(F)CC3)nc12 gave IC50 of 0.0102

Lab note: Cc1cc([C@@H](C)Nc2ccc(Cl)nc2C(=O)O)c2nc(N3C[C@@H](F)C[C@@H]3C)c(C#N)nc2c1 [Example 246D] gave IC50 of 0.0068

Lab note: Cc1cc([C@@H](C)Nc2ccc(Cl)nc2C(=O)O)c2nc(N3C[C@H](C)OC[C@H]3C)c(C#N)nc2c1 [Example 238A] gave IC50 of 0.0104

The values you see were collected from patent US20240391882A1.
